Numbers sourced from the nanobody polyreactivity screen of Harvey et al. (2022).

Assay: yeast display, Sf9 membrane polyspecificity reagent, FACS + sequencing; frameworks hold sequencing errors
Measurement label: polyreactivity (PSR sort gate)

Here is how some sequences turned out for polyreactivity (PSR sort gate).
QVQLVESGGGLVQAGGSLRLSCAASGRTFTHNVMGWYRQAPGKERELVAGISSTGGSTYYADSVKGRFTISRDNAKNTVYLQMNSLKPEDTAVYYCAVIGYHYSAISPPSQTRQGYDYWGQGTQVTLSS	low polyreactivity
QVQLQESGGGLVQAGGSLRLSCAASGYISTFSSEMGWYRQAPGKERELVASIAPGCTTSYADSVKGRFTISRDNAKNTVYLQMNSLKPEDTAVYYCAVDYTVPASFGYWGQGTQVTVSS	high polyreactivity
QVQLVESGGGLVQAGGSLRLSCAASGSTFQTYARGWYRQAPGKERELVASIDYSGGSTYYADSVKGRFTISRDNAKNTVYLQMNSLKPEDTAVYYCAKALSQTWYDGQYGYWGQGTQVTVSS	low polyreactivity
QVQLVESGGGLVQAGGSLRLSCAASGRIFPGNAMGGYRQAPGKERELVATISRIGGSTYADSVKGRFTISRDNAKNTVYLQMNSLKPEDTAVYYCAKTWVSRDVEYDYWGQGTQVTVSS	low polyreactivity
QVQLVESGGGLVQAGGSLRLSCAASGFTFFYYDMGWYRQAPGKERELVADITTGGSTYYADSVKGRFTISRDNAKNTVYLQMNSLKPEDTAVYYCAALLYVSNSYRWWPWDGEDYWGQGTQVTVSS	high polyreactivity
QVQLVESGGGLVQAGGSLRLSCAASGRTFNSNAMGCYRQAPGKERELVARISRGASTYYADSVKGRFTISRDNAKNTVYLQMNSLKPEDTAVYYCAKRRRSAAPKYDYWGQGTQVTVSS	high polyreactivity

Q: Reported polyreactivity (PSR sort gate) for QVQLVESGGGLVQAGGSLRLSCAASGRTFIGYAMGWYRPAPGKERELVAGISWSGGSTYYADSVKGRFTISRDNAKNPVSLQMNSLKPEDTAVYYCAARGRWSTEYGYWGQGTQVTVSS : what is it?
Result: low polyreactivity

Q: Reported polyreactivity (PSR sort gate) for QVQLVESGGGLVQAGGSLRLSCAATGYIGGNAMGWYRQAPWKERELVATLSRSGGSTYYADSVKGRFTISRDNAKNTVYLQMNSLKPEDSAVYYCAAVSYGNYHWGMYYWGQGTQVTVSS : what is it?
Result: low polyreactivity

Q: Reported polyreactivity (PSR sort gate) for QVQLVESGGGLVQAGGSLRLSCAASGSTFWVNAMGWYRQAPGKERELVAAITVRGTSTYYADSVKGRFTISRDNAKNTVYLQMNSLKPEDTAVYYCAKGSLGSTRYYYWGQGTQVTVSS : what is it?
Result: low polyreactivity

Q: Reported polyreactivity (PSR sort gate) for QLQLVESGGGLVQAGGSLRLSCAASGNIFNYNAMGWYRQAPGKERELVAAISFSGGSTYYADSVKGRFTISRDNAQNTVYLQMNSLKPEDTAVYYCAKAERNYFEDWGQGTQVTVSS : what is it?
Result: high polyreactivity

Q: Reported polyreactivity (PSR sort gate) for QVQLVESGGGLVQAGCSLRLSCAASGFILSDNAMGWYRQAPGKERELVAAINSGGSTYYADSVKGRFTISRDNAKNTVYFQMNSLKPEDSAVYYCAADYSTWLRAYDYWGQGTQVTVSS : what is it?
Result: low polyreactivity
